Reported IC50 values for the following compounds.
# Experimental System: glutathione S-transferase (GST)-fused full-length human Syk protein (Homo sapiens)
# Construct: (GST)-fused full-length human Syk protein; GST (glutathione S-transferase); purchased Carna Biosciences
# Test: Syk enzyme assay
# Type: biochemical
# Condition Summary: Syk enzyme assay, Test Example 1; read-out: IC50 of Syk-inhibitory activity

Guide cases for IC50, answers given:
CC[C@@H](Nc1nc(Nc2ccc3c(cnn3CC(F)F)c2)c(C(N)=O)cc1F)[C@H](C)N; 10 to 50 nM
NC(=O)c1cc(F)c(N[C@@H]2CCCC[C@@H]2N)nc1Nc1cc(F)c2[nH]ccc2c1 (relative stereo); < 10 nM
CC(=O)Nc1cccc2cc(Nc3nc(N[C@@H]4CCCC[C@@H]4N)c(F)cc3C(N)=O)cnc12; < 10 nM

Fill in: IC50 of CC(C)C(Nc1nc(Nc2ccc3ncccc3c2)c(C(N)=O)cc1F)[C@H](C)N (stereo partly shown) is ___
10 to 50 nM

Item under review: NC(=O)c1cc(F)c(N[C@@H]2CCCC[C@@H]2N)nc1Nc1cncc(NC(=O)c2ccno2)c1 (relative stereo) . Reported IC50?
< 10 nM

Any idea what IC50 was measured for Cc1cc(Nc2nc(NC3CCCCC3N)c(F)cc2C(N)=O)cnc1N1CCOCC1 (stereo not shown) ?
10 to 50 nM

Fill in: IC50 of Cc1cncc(Nc2nc(NC[C@H](C)N)c(F)cc2C(N)=O)c1 is ___
10 to 50 nM

====

# Experimental System: glutathione S-transferase (GST)-fused full-length human Syk protein (Homo sapiens, UniProt P43405)
# Construct: (GST)-fused full-length human Syk protein; GST (glutathione S-transferase); purchased Carna Biosciences
# Test: Syk enzyme assay
# Type: biochemical
# Condition Summary: Syk enzyme assay, Test Example 1; read-out: IC50 of Syk-inhibitory activity
pIC50: −log10 of the molar value.
Measure: pIC50

Some solved entries appear below for comparison.
COc1cc(Nc2nc(N3CCNC(=O)C3)c(F)cc2C(N)=O)cc(OC)c1; 6.00 to 7.00
NC(=O)c1cc(F)c(N[C@@H]2CCCC[C@@H]2N)nc1Nc1cncc(-c2ccccc2F)c1 (relative stereo) [Example 004-143]; > 8.00
NC(=O)c1cc(F)c(NC2CCCCC2N)nc1Nc1cccc2c1cnn2CCN1CCCC1 (stereo not shown); > 8.00

Now let's try a different one.
Can you look up the measured pIC50 of CCn1ncc2c(Nc3nc(N[C@H](CC4CC4)[C@H](C)N)c(F)cc3C(N)=O)cccc21 for me?
> 8.00

====

# System: THP-1 cells
# Test: TNFα generation assay
# Assay type: cell-based, human
# Condition Summary: Homo sapiens, THP-1, THP-1 cells; Table 22; read-out: IC50 in TNFα generation assay
# IC50 per record follows

These recorded examples may help you get a feel for the data.
NC(=O)c1cc(F)c(N[C@@H]2CCCC[C@@H]2N)nc1Nc1cncc(-c2cccs2)c1 (relative stereo); 65 to 130 nM
COc1cc(Nc2nc(NC3CCCCC3N)c(F)cc2C(N)=O)cc(OC)c1OC (stereo not shown); 65 to 130 nM

Return IC50 measured with THP-1 cells given this compound: NC(=O)c1cc(F)c(NC2CCCCC2N)nc1Nc1ccc2cnn(CCF)c2c1 (stereo not shown)
65 to 130 nM

Any idea what IC50 came out for NC(=O)c1cc(F)c(N[C@@H]2CCCC[C@@H]2N)nc1Nc1cncc(F)c1 (relative stereo) on THP-1 cells?
130 to 200 nM

Record CCCC[C@H](CN)Nc1nc(Nc2cncc(-c3ccccc3)c2)c(C(N)=O)cc1F : what is its IC50 with THP-1 cells?
130 to 200 nM

// lookup IC50 | system=THP-1 cells | key= CC[C@@H](Nc1nc(Nc2ccnc(-c3ccc(OC)cc3F)c2)c(C(N)=O)cc1F)[C@H](C)N
< 65 nM

Lab note: need IC50 with THP-1 cells for entry COc1cc(Nc2nc(NC[C@H](C)N)c(F)cc2C(N)=O)cc(OC)c1 , please look it up.
< 65 nM

I'm curious: which IC50 was measured for NC(=O)c1cc(F)c(N[C@@H]2CCCC[C@@H]2N)nc1Nc1cncc2c1cnn2-c1ccccc1 tested on THP-1 cells?
130 to 200 nM

// map CCCC[C@@H](Nc1nc(Nc2ccnc(OC)c2)c(C(N)=O)cc1F)[C@H](C)N to recorded IC50 (system: THP-1 cells)
65 to 130 nM

The reported numbers originate from patent US8895585B2.
